System: A2780 ovarian cells
Experiment: A2780 Ovarian Cell Proliferation Assay in Lipid Reduced Medium, without Palmitate
Format: cell-based
Settings: Homo sapiens, A2780; lipid reduced medium, without palmitate, 96 h, MTT; read-out: Proliferation A2780 w/o Palmitate pIC50 (converted)
Entries whose IC50 is below 200 nM take Condition met; entries at or above 200 nM take Condition not met.

smiles.repr | label.value
Cc1ccc(C(=O)N2CCC(c3ccc(-c4cnn(C)c4)cc3)CC2)cc1NC(=O)C1CN(C2CCC2)C1 | Condition met
Cc1ccc(C(=O)N2CCC(c3ccc(-c4cnn(C)c4)cc3)CC2)cc1NC(=O)c1ccc(N2CCN[C@@H](CO)C2)nc1 | Condition met
Cc1ccc(C(=O)N2CCC(c3ccc(-c4cnn(C)c4)nc3)CC2)cc1NC(=O)c1ccc(Cl)nc1 | Condition not met
Cc1ccc(C(=O)N2CC(c3ccc(-c4cnn(C)c4)cc3)C2)cc1NC(=O)C1CCCCC1 | Condition met
Cc1ccc(C(=O)N2CC(c3ccc(-c4cnn(C)c4)cc3)C2)cc1NC(=O)c1cccs1 | Condition not met
Cc1ccc(C(=O)N2CCC(c3ccc(-c4cnn(C)c4)cc3)CC2)cc1NC(=O)c1cccc(Cl)c1 | Condition not met
